Test system: HCC2998 (Colorectal Carcinoma)
Assay: combination Emax (second highest fraction inhibited in the dose matrix, 72 h); higher = more inhibition; extreme values may be limits of the assay
Please go through the items and note down their combination Emax.
Lab note: write the figure by itself, no unit.

Request: What measured combination Emax goes with CN(CCO)CC[C@H](CSc1ccccc1)Nc1ccc(S(=O)(=O)NC(=O)c2ccc(N3CCC([C@@H](O)c4ccccc4-c4ccc(Cl)cc4)CC3)cc2)cc1S(=O)(=O)C(F)(F)F [AZD4320] + C1CN(CCC1(C(=O)N[C@@H](CCO)C2=CC=C(C=C2)Cl)N)C3=NC=NC4=C3C=CN4 [Capivasertib] (first compound max 1 µM, 7x7, partner max 3 µM) ?
Response: 0.881

Request: What measured combination Emax goes with CC1(C)CCC(CN2CCN(c3ccc(C(=O)NS(=O)(=O)c4ccc(NCC5CCOCC5)c([N+](=O)[O-])c4)c(Oc4cnc5[nH]ccc5c4)c3)CC2)=C(c2ccc(Cl)cc2)C1 [Venetoclax] + C[C@@H]1COCCN1C2=NC(=NC(=C2)C3(CC3)[S@](=N)(=O)C)C4=C5C=CNC5=NC=C4 [AZD6738] (first compound max 1 µM, 7x7, partner max 10 µM) ?
Response: 0.779

Request: What measured combination Emax goes with Cc1c2c(nn1C)CSCc1cc(n(C)n1)CSc1cc(c3ccccc3c1)OCCCc1c(C(=O)O)n(C)c3c-2c(Cl)ccc13 [AZD5991] + CC1(C)CCC(CN2CCN(c3ccc(C(=O)NS(=O)(=O)c4ccc(NCC5CCOCC5)c([N+](=O)[O-])c4)c(Oc4cnc5[nH]ccc5c4)c3)CC2)=C(c2ccc(Cl)cc2)C1 [Venetoclax] (first compound max 1 µM, 7x7, partner max 1 µM) ?
Response: 0.893

====

Please go through the items and note down their combination Emax.
Tested on: COLO-668 (Small Cell Lung Carcinoma)
Assay: combination Emax (second highest fraction inhibited in the dose matrix, 72 h); higher = more inhibition; extreme values may be limits of the assay
Lab note: write the figure by itself, no unit.

Request: What measured combination Emax goes with CC1(C)CCC(CN2CCN(c3ccc(C(=O)NS(=O)(=O)c4ccc(NCC5CCOCC5)c([N+](=O)[O-])c4)c(Oc4cnc5[nH]ccc5c4)c3)CC2)=C(c2ccc(Cl)cc2)C1 [Venetoclax] + C[C@@H](Nc1cc(F)cc(F)c1)c1cc(C(=O)N(C)C)cc2c(=O)cc(N3CCOCC3)oc12 [AZD8186] (first compound max 1 µM, 7x7, partner max 3 µM) ?
Response: 0.438

Request: What measured combination Emax goes with CN(CCO)CC[C@H](CSc1ccccc1)Nc1ccc(S(=O)(=O)NC(=O)c2ccc(N3CCC([C@@H](O)c4ccccc4-c4ccc(Cl)cc4)CC3)cc2)cc1S(=O)(=O)C(F)(F)F [AZD4320] + Cc1cc2ncnn2cc1Nc1ncc2c(n1)n(C1CCOCC1)c(=O)n2C [AZD7648] (first compound max 1 µM, 7x7, partner max 10 µM) ?
Response: 0.867

Request: What measured combination Emax goes with CN(CCO)CC[C@H](CSc1ccccc1)Nc1ccc(S(=O)(=O)NC(=O)c2ccc(N3CCC([C@@H](O)c4ccccc4-c4ccc(Cl)cc4)CC3)cc2)cc1S(=O)(=O)C(F)(F)F [AZD4320] + CCN(CCO)CCCOc1ccc2c(Nc3cc(CC(=O)Nc4cccc(F)c4)[nH]n3)ncnc2c1 [AZD2811] (first compound max 1 µM, 7x7, partner max 1 µM) ?
Response: 0.915

Request: What measured combination Emax goes with C=CCn1c(=O)c2cnc(Nc3ccc(N4CCN(C)CC4)cc3)nc2n1-c1cccc(C(C)(C)O)n1 [AZD1775] + O=C(c1cc(Cc2n[nH]c(=O)c3ccccc23)ccc1F)N1CCN(C(=O)C2CC2)CC1 [Olaparib] (first compound max 1 µM, partner max 10 µM) ?
Response: 0.566

====

Please go through the items and note down their Bliss excess.
System: CADO-ES1 (Ewing's Sarcoma)
Test: Bliss excess, mean over the matrix (fraction); higher = more synergy
Lab note: write the figure by itself, no unit.

Request: Form entry - test system: CADO-ES1 (Ewing's Sarcoma); read-out: Bliss excess; compound: COc1nnc2ccc(N3CCC(c4ccc(OCCN5CCN(C)C(=O)[C@H]5C)cc4)CC3)nn12 [AZD5153] + Cn1cnc2c(F)c(Nc3ccc(Br)cc3Cl)c(C(=O)NOCCO)cc21 [Selumetinib] (first compound max 1 µM, 7x7, partner max 10 µM)
Response: -0.0469

Request: Form entry - test system: CADO-ES1 (Ewing's Sarcoma); read-out: Bliss excess; compound: Cc1c2c(nn1C)CSCc1cc(n(C)n1)CSc1cc(c3ccccc3c1)OCCCc1c(C(=O)O)n(C)c3c-2c(Cl)ccc13 [AZD5991] + C1CN(CCC1(C(=O)N[C@@H](CCO)C2=CC=C(C=C2)Cl)N)C3=NC=NC4=C3C=CN4 [Capivasertib] (first compound max 1 µM, 7x7, partner max 3 µM)
Response: -0.029

Request: Form entry - test system: CADO-ES1 (Ewing's Sarcoma); read-out: Bliss excess; compound: CN(C)CCCOc1ccc(-c2ccc3ncc4c(c3c2)n(C2CCOCC2)c(=O)n4C)cn1 [AZD0156] + C=CCn1c(=O)c2cnc(Nc3ccc(N4CCN(C)CC4)cc3)nc2n1-c1cccc(C(C)(C)O)n1 [AZD1775] (first compound max 1 µM, partner max 1 µM)
Response: 0.0196

Request: Form entry - test system: CADO-ES1 (Ewing's Sarcoma); read-out: Bliss excess; compound: CCc1c2c(nc3ccc(O)cc13)-c1cc3c(c(=O)n1C2)COC(=O)[C@]3(O)CC [SN-38] + O=C(c1cc(Cc2n[nH]c(=O)c3ccccc23)ccc1F)N1CCN(C(=O)C2CC2)CC1 [Olaparib] (first compound max 0.3 µM, 7x7, partner max 10 µM)
Response: 0.0253

Request: Form entry - test system: CADO-ES1 (Ewing's Sarcoma); read-out: Bliss excess; compound: CC1(C)CCC(CN2CCN(c3ccc(C(=O)NS(=O)(=O)c4ccc(NCC5CCOCC5)c([N+](=O)[O-])c4)c(Oc4cnc5[nH]ccc5c4)c3)CC2)=C(c2ccc(Cl)cc2)C1 [Venetoclax] + C[C@@H](Nc1cc(F)cc(F)c1)c1cc(C(=O)N(C)C)cc2c(=O)cc(N3CCOCC3)oc12 [AZD8186] (first compound max 1 µM, 7x7, partner max 3 µM)
Response: 0.117

====

System: KGN (Other Solid Carcinomas)
Experiment: Bliss excess, mean over the matrix (fraction); higher = more synergy
measurement type: Bliss excess
Lab note: write the figure by itself, no unit.

Request: What measured Bliss excess goes with Cc1c2c(nn1C)CSCc1cc(n(C)n1)CSc1cc(c3ccccc3c1)OCCCc1c(C(=O)O)n(C)c3c-2c(Cl)ccc13 [AZD5991] + CC(=O)O[C@H]1C(=O)[C@@]2(C)[C@H]([C@H](OC(=O)c3ccccc3)[C@]3(O)C[C@H](OC(=O)[C@H](O)[C@@H](NC(=O)c4ccccc4)c4ccccc4)C(C)=C1C3(C)C)[C@]1(OC(C)=O)CO[C@@H]1C[C@@H]2O [Paclitaxel] (first compound max 1 µM, 7x7, partner max 3 µM) ?
Response: 0.0025

Request: What measured Bliss excess goes with COc1cccc(OCCCN)c1-c1cc(Nc2cnc(C#N)cn2)n[nH]1 [Prexasertib] + CN(C)CCCOc1ccc(-c2ccc3ncc4c(c3c2)n(C2CCOCC2)c(=O)n4C)cn1 [AZD0156] (first compound max 1 µM, 7x7, partner max 1 µM) ?
Response: -0.0432

Request: What measured Bliss excess goes with COc1nnc2ccc(N3CCC(c4ccc(OCCN5CCN(C)C(=O)[C@H]5C)cc4)CC3)nn12 [AZD5153] + Cc1c2c(nn1C)CSCc1cc(n(C)n1)CSc1cc(c3ccccc3c1)OCCCc1c(C(=O)O)n(C)c3c-2c(Cl)ccc13 [AZD5991] (first compound max 1 µM, 7x7, partner max 1 µM) ?
Response: -0.0364

Request: What measured Bliss excess goes with CC1(C)CCC(CN2CCN(c3ccc(C(=O)NS(=O)(=O)c4ccc(NCC5CCOCC5)c([N+](=O)[O-])c4)c(Oc4cnc5[nH]ccc5c4)c3)CC2)=C(c2ccc(Cl)cc2)C1 [Venetoclax] + CS(=O)(=O)CCNCc1ccc(-c2ccc3ncnc(Nc4ccc(OCc5cccc(F)c5)c(Cl)c4)c3c2)o1 [Lapatinib] (first compound max 1 µM, 7x7, partner max 10 µM) ?
Response: -0.0609

Request: What measured Bliss excess goes with CN(CCO)CC[C@H](CSc1ccccc1)Nc1ccc(S(=O)(=O)NC(=O)c2ccc(N3CCC([C@@H](O)c4ccccc4-c4ccc(Cl)cc4)CC3)cc2)cc1S(=O)(=O)C(F)(F)F [AZD4320] + CS(=O)(=O)CCNCc1ccc(-c2ccc3ncnc(Nc4ccc(OCc5cccc(F)c5)c(Cl)c4)c3c2)o1 [Lapatinib] (first compound max 1 µM, 7x7, partner max 10 µM) ?
Response: -0.0448

====

Test system: NCI-H522 (Lung Adenocarcinoma)
Assay: combination Emax (second highest fraction inhibited in the dose matrix, 72 h); higher = more inhibition; extreme values may be limits of the assay
Please go through the items and note down their combination Emax.
Lab note: write the figure by itself, no unit.

Request: What measured combination Emax goes with Cc1c2c(nn1C)CSCc1cc(n(C)n1)CSc1cc(c3ccccc3c1)OCCCc1c(C(=O)O)n(C)c3c-2c(Cl)ccc13 [AZD5991] + CN(C)CCCOc1ccc(-c2ccc3ncc4c(c3c2)n(C2CCOCC2)c(=O)n4C)cn1 [AZD0156] (first compound max 1 µM, 7x7, partner max 1 µM) ?
Response: 0.387

Request: What measured combination Emax goes with CS(=O)(=O)CCNCc1ccc(-c2ccc3ncnc(Nc4ccc(OCc5cccc(F)c5)c(Cl)c4)c3c2)o1 [Lapatinib] + Cn1cnc2c(F)c(Nc3ccc(Br)cc3Cl)c(C(=O)NOCCO)cc21 [Selumetinib] (first compound max 10 µM, 7x7, partner max 10 µM) ?
Response: 0.257

Request: What measured combination Emax goes with C[C@@H]1COCCN1c1cc(C2([S@](C)(=N)=O)CC2)nc(-c2ccnc3[nH]ccc23)n1 [AZD6738] + Nc1ccn([C@@H]2O[C@H](CO)[C@@H](O)C2(F)F)c(=O)n1 [Gemcitabine] (first compound max 10 µM, 7x7, partner max 0.3 µM) ?
Response: 0.912
